Cited source: patent US20240270821A1

Target: hGIPR (Homo sapiens)
Sequence (P48546 22-466): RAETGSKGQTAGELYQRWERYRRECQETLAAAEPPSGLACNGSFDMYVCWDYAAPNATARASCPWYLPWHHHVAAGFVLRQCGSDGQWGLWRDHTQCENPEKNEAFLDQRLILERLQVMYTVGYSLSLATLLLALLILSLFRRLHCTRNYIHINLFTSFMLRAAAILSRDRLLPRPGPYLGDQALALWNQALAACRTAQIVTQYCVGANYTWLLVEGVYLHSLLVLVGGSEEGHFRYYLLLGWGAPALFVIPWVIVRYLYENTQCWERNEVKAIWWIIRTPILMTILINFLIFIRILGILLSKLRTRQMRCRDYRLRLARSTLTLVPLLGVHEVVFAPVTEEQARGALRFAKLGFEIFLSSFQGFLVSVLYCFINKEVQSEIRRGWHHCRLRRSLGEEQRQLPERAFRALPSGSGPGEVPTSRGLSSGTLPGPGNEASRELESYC
Experiment: Functional cAMP activation in the presence of 0.1% casein (no HSA);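 further: intracellular cAMP rise after 30 min at 37 °C read by HTRF against a standard curve, scaled between buffer alone (0%) and top control ligand concentration (100%), four-parameter fit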
Assay type: cell-based
Conditions: in the presence of 0.1% casein (no HSA); geometric mean of relative EC50; read-out: Relative cAMP EC50, hGIPR
pEC50: −log10 of the molar value. Starred links: 1 amine or outer side, 2 acyl side, 3 side chain; linkers in the order of their positions; H or OH if unused. Non-standard residues stand in square brackets, D forms with d. Groups on a side chain read outwards from the residue. No end group written: not given here. *: point of attachment. C18 diacid = O=C(O)CCCCCCCCCCCCCCCCC(=O)*; αMePhe(2-F) = C[C@](N)(Cc1ccccc1F)C(=O)O; γGlu = O=C(O)[C@H](CCC(=O)[*:2])N[*:1]; αMeY = C[C@](N)(Cc1ccc(O)cc1)C(=O)O; 4Pal = N[C@@H](Cc1ccncc1)C(=O)O; αMeL = CC(C)C[C@](C)(N)C(=O)O; αMeS = C[C@](N)(CO)C(=O)O; Orn = NCCC[C@H](N)C(=O)O; AEEA = NCCOCCOCC(=O)O; Aib = CC(C)(N)C(=O)O
# reported pEC50; entries follow
Test readout: pEC50

substance="H-Y[Aib]QGT[αMePhe(2-F)]TSD[4Pal]SI[αMeL]LDKK([γGlu-γGlu-C18 diacid])AQ[Aib]AFIEYLTEGGPSSGEPPPSGSEE-NH2 [Example 633]" assayed_system="hGIPR (Homo sapiens)" test_readout=pEC50 reported=10.73
substance="Y[Aib]QGT[αMePhe(2-F)]TSD[4Pal][αMeS]I[αMeL]LD[Orn]K([AEEA-γGlu-C18 diacid])AA[Aib]EFI[dE][αMeY]LIEGGPSSGEPPPSGTE-NH2 [Example 719]" assayed_system="hGIPR (Homo sapiens)" test_readout=pEC50 reported=11.00
substance="H-Y[Aib]QGT[αMePhe(2-F)]TSD[4Pal][αMeS]I[αMeL]LD[Orn]K([AEEA-γGlu-C18 diacid])AA[Aib]EFI[dE][αMeY]LIEGGPSSGAPPPSGEE-NH2 [Example 703]" assayed_system="hGIPR (Homo sapiens)" test_readout=pEC50 reported=11.00
